Biological target: 5-HT2C receptor (Homo sapiens)
Construct: expressed in transfected cells; host or cells: CHO-K1
Sequence (P28335 33-458): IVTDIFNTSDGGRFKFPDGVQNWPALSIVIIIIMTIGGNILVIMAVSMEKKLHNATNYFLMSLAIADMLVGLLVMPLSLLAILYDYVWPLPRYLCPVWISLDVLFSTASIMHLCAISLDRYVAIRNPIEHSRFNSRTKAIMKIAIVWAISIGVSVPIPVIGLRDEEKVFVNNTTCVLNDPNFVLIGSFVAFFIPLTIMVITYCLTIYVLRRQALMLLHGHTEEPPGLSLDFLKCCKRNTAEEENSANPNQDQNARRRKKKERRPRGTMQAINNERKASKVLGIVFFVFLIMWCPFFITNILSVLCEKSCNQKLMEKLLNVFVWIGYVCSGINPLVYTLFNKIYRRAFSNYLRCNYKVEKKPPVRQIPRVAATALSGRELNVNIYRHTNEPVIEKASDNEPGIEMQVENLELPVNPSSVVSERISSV
Assay: Serotonin receptor binding, [3H] Mesulergine, CHO-K1 membranes
measure: pIC50
# reply with the number alone; pIC50 is -log10 of concentration in mol/L

Inquiry: Any idea what pIC50 was measured for COc1ccc2[nH]cc(CCNC(=O)c3cc(=O)c(O)co3)c2c1 ?
Reply text: 5.14

Values from patent US9101613B2
